Each entry below lists one item and its recorded TGI value.
Test system: A549 NSCLC
Experiment: NCI tumour cell line growth inhibition, 48 h

| Compound | TGI |
| --- | --- |
| CC#CC(OCC)(OCC)OCC | > 100 µM |
| Cc1c(Cl)ccc2c1NC(=O)C2(O)CC(=O)c1ccc2ccccc2c1 (stereo not drawn) | > 100 µM |
| Nc1cc(N)c2nc(-c3ccccc3)c(Sc3ccc(Cl)c(Cl)c3)nc2c1 | 51.9 µM |

IN: Quick one: TGI for O=C(Nc1ccc(Cl)cc1)Nc1ccc(Oc2nncc3ccccc23)cc1 ?
OUT: 11.5 µM

IN: Quick one: TGI for CC(C)OP(=O)(OC(C)C)C([CH2][Sn]([CH3])([CH3])[Cl])P(=O)(OC(C)C)OC(C)C ?
OUT: > 100 µM

IN: Quick one: TGI for Cc1ccc(NC(=O)C(=O)C(C2C(C)CC(=O)C2CC(=O)O)[N+](=O)[O-])cc1 (stereo not drawn) ?
OUT: > 100 µM

IN: Quick one: TGI for CC(C)(OCc1ccccc1)c1ccccc1P(c1ccccc1)c1ccccc1 ?
OUT: > 100 µM

IN: Quick one: TGI for COc1ccc(N2C(=O)C3c4[nH]c5ccc(C)cc5c4C4CCC(c5ccccc5)CC4C3C2=O)cc1 (stereo not drawn) ?
OUT: > 100 µM

IN: Quick one: TGI for Nc1nc(=S)c2c(ncn2CC(O)CO)[nH]1 (stereo not drawn) ?
OUT: > 100 µM

IN: Quick one: TGI for COc1ccc2nccc(NCCCN3CCN(CCCNc4ccnc5ccc(OC)cc45)CC3)c2c1 ?
OUT: 6.55 µM

IN: Quick one: TGI for N#CC(/C(=N/N=C(N)N)C(=O)Nc1ccccc1[N+](=O)[O-])c1nc(-c2ccc([N+](=O)[O-])cc2)cs1 (stereo not drawn) ?
OUT: > 100 µM

IN: Quick one: TGI for C=C(Nc1ccc(OC)cc1OC)C(=O)Cc1cccc[n+]1[O-] ?
OUT: > 100 µM

IN: Quick one: TGI for COc1ccc2c(-c3ccc(OCCN(C)C)cc3)c(Oc3ccccc3)c(=O)oc2c1 ?
OUT: 10.4 µM
